# Target System: intestinal alkaline phosphatase Alpi (Mus musculus)
# Assay Procedure: mouse IAP enzyme activators, SAR follow-up, human IAP activator project, biochemical (AID 493128)
# Experimental Context: purified mouse IAP enzyme activity, activation
Calls of active or inactive are those of the source. The rule behind the calls is not given here.
EC50 for assorted compounds

Form field EC50 for item COc1cc(/C=N\NC(=O)C(=O)N/N=C/c2cc(OC)c(O)c(OC)c2)cc(OC)c1O on intestinal alkaline phosphatase Alpi (Mus musculus): > 100 µM (inactive)

Form field EC50 for item COc1ccc(/C=N/NC(=O)C(=O)N/N=C/c2ccc(OC)c(OC)c2)cc1OC on intestinal alkaline phosphatase Alpi (Mus musculus): > 100 µM (inactive)

Form field EC50 for item COc1cccc(C=NNC(=O)C(=O)NN=Cc2cccc(OC)c2O)c1O on intestinal alkaline phosphatase Alpi (Mus musculus): > 100 µM (inactive)

Form field EC50 for item CC1C(=O)NN=C1C(=O)NN=Cc1ccc(O)cc1O (stereo unspecified) on intestinal alkaline phosphatase Alpi (Mus musculus): > 100 µM (inactive)

Form field EC50 for item COc1cc(/C=N/NC(=O)C(=O)N/N=C/c2ccc(O)c(OC)c2)ccc1O on intestinal alkaline phosphatase Alpi (Mus musculus): > 100 µM (inactive)

Form field EC50 for item COc1cccc(C=NNC(=O)C2=NNC(=O)C2C)c1O (stereo unspecified) on intestinal alkaline phosphatase Alpi (Mus musculus): > 100 µM (inactive)
